TARGET_DESC: T1, Abeta-42 plaque particles (Homo sapiens, UniProt P05067)
T1 construct: Abeta 1-42
PROCEDURE_DETAILS: Mass spectroscopy proteomics, semi-quantitative binding affinity of serum proteins (plaqueproteome, Table 2)
CONDITIONS: higher number = stronger affinity
ENDPOINT_LABEL: Semi-quantitative analysis of proteins binding to different plaque particles: Abeta-42
Numbers only.

Isoform 2 of Arginase-1 (protein) MSAKSRTIGIIGAPFSKGQPRGGVEEGPTVLRKAGLLEKLKEQVTQNFLILECDVKDYGDLPFADIPNDSPFQIVKNPRSVGKASEQLAGKVAEVKKNGRISLVLGGDHSLAIGSISGHARVHPDLGVIWVDAHTDINTPLTTTSGNLHGQPVSFLLKELKGKIPDVPGFSWVTPCISAKDIVYIGLRDVDPGEHYILKTLGIKYFSMTEVDRLGIGKVMEETLSYLLGRKKRPIHLSFDVDGLDPSFTPATGTPVVGGLTYREGLYITEEIYKTGLLSGLDIMEVNPSLGKTPEEVTRTVNTAVAITLACFGLAREGNHKPIDYLNPPK	2
Isoform 2 of Nucleophosmin (protein) MEDSMDMDMSPLRPQNYLFGCELKADKDYHFKVDNDENEHQLSLRTVSLGAGAKDELHIVEAEAMNYEGSPIKVTLATLKMSVQPTVSLGGFEITPPVVLRLKCGSGPVHISGQHLVAVEEDAESEDEEEEDVKLLSISGKRSAPGGGSKVPQKKVKLAADEDDDDDDEEDDDEDDDDDDFDDEEAEEKAPVKKGQESFKKQEKTPKTPKGPSSVEDIKAKMQASIEKGGSLPKVEAKFINYVKNCFRMTDQEAIQDLWQWRKSL	4
Complement factor H-related protein 1 (protein) EATFCDFPKINHGILYDEEKYKPFSQVPTGEVFYYSCEYNFVSPSKSFWTRITCTEEGWSPTPKCLRLCFFPFVENGHSESSGQTHLEGDTVQIICNTGYRLQNNENNISCVERGWSTPPKCRSTDTSCVNPPTVQNAHILSRQMSKYPSGERVRYECRSPYEMFGDEEVMCLNGNWTEPPQCKDSTGKCGPPPPIDNGDITSFPLSVYAPASSVEYQCQNLYQLEGNKRITCRNGQWSEPPKCLHPCVISREIMENYNIALRWTAKQKLYLRTGESAEFVCKRGYRLSSRSHTLRTTCWDGKLEYPTCAKR	0
Peroxiredoxin-1 (protein) SSGNAKIGHPAPNFKATAVMPDGQFKDISLSDYKGKYVVFFFYPLDFTFVCPTEIIAFSDRAEEFKKLNCQVIGASVDSHFCHLAWVNTPKKQGGLGPMNIPLVSDPKRTIAQDYGVLKADEGISFRGLFIIDDKGILRQITVNDLPVGRSVDETLRLVQAFQFTDKHGEVCPAGWKPGSDTIKPDVQKSKEYFSKQK	5

Below are 5 molecules. Give each one its Semi-quantitative analysis of proteins binding to different plaque particles: Abeta-42.
1. Isoform 2 of Ficolin-3 (protein) QEHPSCPGPRELEASKVVLLPSCPGAPGSPGEKGAPGPQGPPGPPGKMGPKGEPGPRNCRELLSQGATLSGWYHLCLPEGRALPVFCDMDTEGGGWLVFQRRQDGSVDFFRSWSSYRAGFGNQESEFWLGNENLHQLTLQGNWELRVELEDFNGNRTFAHYATFRLLGEVDHYQLALGKFSEGTAGDSLSLHSGRPFTTYDADHDSSNSNCAVIVHGAWWYASCYRSNLNGRYAVSEAAAHKYGIDWASGRGVGHPYRRVRMMLR
2. Apolipoprotein M (protein) MFHQIWAALLYFYGIILNSIYQCPEHSQLTTLGVDGKEFPEVHLGQWYFIAGAAPTKEELATFDPVDNIVFNMAAGSAPMQLHLRATIRMKDGLCVPRKWIYHLTEGSTDLRTEGRPDMKTELFSSSCPGGIMLNETGQGYQRFLLYNRSPHPPEKCVEEFKSLTSCLDSKAFLLTPRNQEACELSNN
3. Alpha-2-HS-glycoprotein (protein) chain 1: APHGPGLIYRQPNCDDPETEEAALVAIDYINQNLPWGYKHTLNQIDEVKVWPQQPSGELFEIEIDTLETTCHVLDPTPVARCSVRQLKEHAVEGDCDFQLLKLDGKFSVVYAKCDSSPDSAEDVRKVCQDCPLLAPLNDTRVVHAAKAALAAFNAQNNGSNFQLEEISRAQLVPLPPSTYVEFTVSGTDCVAKEATEAAKCNLLAEKQYGFCKATLSEKLGGAEVAVTCMVFQTQPVSSQPQPEGANEAVPTPVVDPDAPPSPPLGAPGLPPAGSPPDSHVL chain 2: TVVQPSVGAAAGPVVPPCPGRIRHFKV
4. Selenoprotein P (protein) ESQDQSSLCKQPPAWSIRDQDPMLNSNGSVTVVALLQASUYLCILQASKLEDLRVKLKKEGYSNISYIVVNHQGISSRLKYTHLKNKVSEHIPVYQQEENQTDVWTLLNGSKDDFLIYDRCGRLVYHLGLPFSFLTFPYVEEAIKIAYCEKKCGNCSLTTLKDEDFCKRVSLATVDKTVETPSPHYHHEHHHNHGHQHLGSSELSENQQPGAPNAPTHPAPPGLHHHHKHKGQHRQGHPENRDMPASEDLQDLQKKLCRKRCINQLLCKLPTDSELAPRSUCCHCRHLIFEKTGSAITUQCKENLPSLCSUQGLRAEENITESCQURLPPAAUQISQQLIPTEASASURUKNQAKKUEUPSN
5. Alpha-1-acid glycoprotein 2 (protein) QIPLCANLVPVPITNATLDRITGKWFYIASAFRNEEYNKSVQEIQATFFYFTPNKTEDTIFLREYQTRQNQCFYNSSYLNVQRENGTVSRYEGGREHVAHLLFLRDTKTLMFGSYLDDEKNWGLSFYADKPETTKEQLGEFYEALDCLCIPRSDVMYTDWKKDKCEPLEKQHEKERKQEEGES

Result:
0
18
2
0
9
